pKi: −log10 of the molar value. Counter-ions that a name gives are not always drawn.
Endpoint: pKi. System: human FLAP (Homo sapiens (Human)). Items follow.
Sequence (P20292 whole entry): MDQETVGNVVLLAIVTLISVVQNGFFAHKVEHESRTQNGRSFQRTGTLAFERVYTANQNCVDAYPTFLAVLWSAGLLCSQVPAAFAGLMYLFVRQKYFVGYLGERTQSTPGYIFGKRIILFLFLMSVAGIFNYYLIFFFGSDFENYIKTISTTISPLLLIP
property-name: pKi

Nc1cnc(-c2ccc(C3CCC3)c(OCc3ccccc3Cl)c2F)cn1 [Example 34]    6.52
Nc1cnc(-c2ccc(C3CCC3)c(OCc3cccnn3)c2F)cn1 [Example 288, trifluoroacetic acid salt]    6.44
Nc1cnc(-c2ccc(C3CCC3)c(Oc3cc(N4CCC4)ncn3)c2F)cn1 [Example 138, trifluoroacetate salt]    8.26
CC(C)CCc1ccc(-c2cnc(N)cn2)c(F)c1Oc1ncccn1 [Example 322]    6.24
N#Cc1ccc(Oc2c(C3CCC3)ccc(-c3cnc(N)cn3)c2F)cn1 [Example 108]    7.61
Cc1cc(COc2c(C3CCC3)ccc(-c3cnc(N)cn3)c2F)no1 [Example 291, trifluoroacetic acid salt]    7.33
Nc1cnc(-c2ccc(C3CCC3)c(OCc3ccc(F)cc3C(F)(F)F)c2F)cn1 [Example 44]    5.82
Nc1cnc(-c2ccc(C3CCC3)c(Oc3ccc(C(F)(F)F)nc3)c2F)cn1 [Example 128]    6.53
Oc1c(C2CCC2)ccc(-c2cnc3[nH]ccc3c2)c1F [Example 220]    7.66
Cc1ccnc(Oc2c(C3CCC3)ccc(-c3cnc(N)nc3)c2F)n1 [Example 163]    7.15
Fc1c(-c2cnc3c(c2)OCCN3)ccc(C2CCC2)c1OCc1ccc(C(F)(F)F)cc1 [Example 191]    6.60
Nc1cnc(-c2ccc(C3CCC3)c(Oc3ccnc(-c4ccccc4)n3)c2F)cn1 [Example 144]    8.96
O=C(O)c1ccc(COc2c(C3CCC3)ccc(-c3cnc4c(c3)OCCN4)c2F)cc1 [Example 196]    8.39
Oc1c(C2CCC2)ccc(-c2cnc3c(c2)CCN3)c1F [Example 199]    7.62
Nc1ccc(-c2ccc(C3CCC3)c(Oc3cc(O)ncn3)c2F)nn1 [Example 233]    5.77
Nc1cnc(-c2ccc(C3CCC3)c(OCCNc3cnccn3)c2F)cn1 [Example 295, trifluoroacetic acid salt]    8.38
Fc1c(-c2cnc3c(c2)OCCN3)ccc(C2CCC2)c1Oc1cccc(C(F)(F)F)n1 [Example 194]    8.54
N#Cc1cccc(COc2c(C3CCC3)ccc(-c3cnc(N)cn3)c2F)n1 [Example 292, trifluoroacetic acid salt]    7.43
CNS(=O)(=O)c1ccc(COc2c(C3CCC3)ccc(-c3cnc(N)cn3)c2F)cc1 [Example 27]    8.22
O=C(O)Cc1ccc(COc2c(C3CCC3)ccc(-c3cnc4c(c3)OCCN4)c2F)cc1 [Example 195]    8.66
Nc1cnc(-c2ccc(C3CCC3)c(OCc3cccc(C(F)(F)F)c3)c2F)cn1 [Example 2]    6.80
CCc1ccc(-c2cnc(N)cn2)c(F)c1Oc1ncccn1 [Example 316]    6.54
Nc1cnc(-c2ccc(C3CCC3)c(OCc3ccc(F)cc3)c2F)cn1 [Example 28]    6.52
Nc1cnc(-c2ccc(C3CCC3)c(OCc3ccc(C(=O)O)cc3)c2F)cn1 [Example 5]    7.96
COc1c(C2CCCC2)ccc(-c2cnc(N)cn2)c1F [Example 211]    6.28
CS(=O)(=O)c1cccc(COc2c(C3CCC3)ccc(-c3cnc4c(c3)OCCN4)c2F)c1 [Example 188]    8.07
Nc1cnc(-c2ccc(C3CCC3)c(Oc3ccc(C(F)(F)F)nn3)c2F)cn1 [Example 106]    7.08
Nc1cnc(-c2ccc(C3CCC3)c(OCC(O)CNc3cncnc3)c2F)cn1 (racemic) [Example 55]    6.82
Nc1cnc(-c2ccc(C3CCC3)c(Oc3ccnc(Cl)n3)c2F)cn1 [Example 137]    8.43
Nc1cnc(-c2ccc(C3CCC3)c(OCc3ccc(S(N)(=O)=O)cc3)c2F)cn1 [Example 26]    7.70
Nc1cnc(-c2ccc(C3CCC3)c(OCCNc3ncccn3)c2F)cn1 [Example 296, trifluoroacetic acid salt]    8.17

Source of measurements: patent US9073876B2
